# assayedSystem: Factor Xa
# protocolSummary: chromogenic inhibition assay
*: point of attachment. kt = C-terminal ketothiazole, c1csc(*)n1
Parameter: Ki. Scope: all listed entries.
A number alone suffices; assume µM.

- binder: "Ac-SKLR-kt (SMILES CC(=O)N[C@@H](CO)C(=O)N[C@@H](CCCCN)C(=O)N[C@@H](CC(C)C)C(=O)N[C@@H](CCCNC(=N)N)C(=O)c1nccs1) [Ac-SKLR(SEQ ID NO: 10)-kt]"
  reportedResult: 3.06

Here is another binder to look at.
Value lookup for Ki; key = Ac-RQLR-kt (SMILES CC(=O)N[C@@H](CCCNC(=N)N)C(=O)N[C@@H](CCC(N)=O)C(=O)N[C@@H](CC(C)C)C(=O)N[C@@H](CCCNC(=N)N)C(=O)c1nccs1) [Ac-RQLR(SEQ ID NO: 6)-kt]
0.0081

Cited source: patent US20180066015A1
